B1: library; numbered along this chain (parent)
chain: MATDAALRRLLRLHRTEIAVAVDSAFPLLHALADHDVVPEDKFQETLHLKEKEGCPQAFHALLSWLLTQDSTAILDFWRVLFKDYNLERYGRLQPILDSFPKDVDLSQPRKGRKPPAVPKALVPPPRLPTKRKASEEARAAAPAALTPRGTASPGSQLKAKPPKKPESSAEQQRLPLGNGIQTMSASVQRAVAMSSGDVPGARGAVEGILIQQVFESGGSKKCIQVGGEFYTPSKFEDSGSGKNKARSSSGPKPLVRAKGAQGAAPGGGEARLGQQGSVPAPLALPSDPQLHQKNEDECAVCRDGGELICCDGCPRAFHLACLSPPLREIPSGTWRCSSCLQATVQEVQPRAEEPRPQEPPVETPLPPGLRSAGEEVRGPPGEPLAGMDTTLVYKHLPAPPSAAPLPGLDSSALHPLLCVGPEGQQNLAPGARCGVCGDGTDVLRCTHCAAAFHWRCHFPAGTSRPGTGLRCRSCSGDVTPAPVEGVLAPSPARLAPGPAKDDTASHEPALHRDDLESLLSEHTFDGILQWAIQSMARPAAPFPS

# Variants of: B1
# assay: AIRE transcriptional activation functional score (insulin promoter-GFP; nonsense median 0, synonymous median 1) (normalised score); higher = higher AIRE activity (more reporter activation)
# condition details: with insulin promoter-GFP reporter in HEK293
Entries and their AIRE transcriptional activation functional score

Some solved entries appear below for comparison.
G498D :: 0.318
Q275M :: 1.04

// sample A404L , its AIRE transcriptional activation functional score was 1.26

Recorded result, P124M , AIRE transcriptional activation functional score: 1.48

Kindly note the recorded AIRE transcriptional activation functional score for N86C , which is 0.345

Short answer for C475H : AIRE transcriptional activation functional score was 0.16

AIRE transcriptional activation functional score reported for this variant V192H : 0.776

Just so you know, measured AIRE transcriptional activation functional score for C449V came out at 0.0568

Field AIRE transcriptional activation functional score (entry Q358E ) reads 1.19

Sure, the documented AIRE transcriptional activation functional score for S107M is 1.27
